experimental details: Microsomal Stability Assay (HLM)
Type: in vitro ADME
measurement conditions: human liver microsomes, 0.5 mg/mL protein, 1 μM compound, 37° C.
measured metric: microsomal CLint at 1 µM (µL/min/mg)
Report the value in µL/min/mg with no unit label.

1. O=C1CCc2c(Oc3ccc4c(c3)C[C@H](c3nc(-c5ccc(F)cc5)c[nH]3)CO4)ccnc2N1 (single isomer, unassigned)	11.8

Requested read-out: microsomal CLint at 1 µM. Entry: O=C1CCc2c(Oc3ccc4c(c3)C[C@@H](c3nc(-c5ccc(F)cc5)c[nH]3)CO4)ccnc2N1 (single isomer, unassigned)
21.7

Requested read-out: microsomal CLint at 1 µM. Entry: O=C1CCc2c(Oc3ccc4c(c3)CC(c3ncc(-c5ccc(F)cc5)[nH]3)CO4)ccnc2N1 (racemic)
26.9

Requested read-out: microsomal CLint at 1 µM. Entry: O=C1CCc2c(Oc3ccc4c(c3)CC(c3nc(-c5cccs5)c[nH]3)CO4)ccnc2N1 (racemic)
60.1

* * *

experimental details: Plasma Protein Binding Assay (hPPB)
Type: in vitro ADME
measurement conditions: human plasma, equilibrium dialysis, 5 μM, 4 hours, 37° C.
measured metric: hPPB (% free)
Report the value in % free with no unit label.

1. O=C1CCc2c(Oc3ccc4c(c3)C[C@@H](c3nc(-c5ccc(F)cc5)c[nH]3)CO4)ccnc2N1 (single isomer, unassigned)	0.5
2. O=C1CCc2c(Oc3ccc4c(c3)CC(c3ncc(-c5ccc(F)cc5)[nH]3)CO4)ccnc2N1 (racemic)	0.5

Requested read-out: hPPB (% free). Entry: O=C1CCc2c(Oc3ccc4c(c3)CC(c3nc(-c5cccs5)c[nH]3)CO4)ccnc2N1 (racemic)
0.7

Requested read-out: hPPB (% free). Entry: O=C1CCc2c(Oc3ccc4c(c3)C[C@H](c3nc(-c5ccc(F)cc5)c[nH]3)CO4)ccnc2N1 (single isomer, unassigned)
0.7

* * *

experimental details: Hepatocyte Stability Assay (HLH)
Format: in vitro ADME
measurement conditions: human hepatocytes, 0.5×10^6 cells/mL, 1 μM compound, 37° C.
measured metric: hepatocyte CLint at 1 µM (µL/min/1e6 cells)
Report the value in µL/min/1e6 cells with no unit label.

Look over these answered cases.
1) O=C1CCc2c(Oc3ccc4c(c3)CC(c3ncc(-c5ccc(F)cc5)[nH]3)CO4)ccnc2N1 (racemic)	4.6
2) O=C1CCc2c(Oc3ccc4c(c3)CC(c3nc(-c5cccs5)c[nH]3)CO4)ccnc2N1 (racemic)	11.5
3) O=C1CCc2c(Oc3ccc4c(c3)C[C@@H](c3nc(-c5ccc(F)cc5)c[nH]3)CO4)ccnc2N1 (single isomer, unassigned)	26.8

Requested read-out: hepatocyte CLint at 1 µM. Entry: O=C1CCc2c(Oc3ccc4c(c3)C[C@H](c3nc(-c5ccc(F)cc5)c[nH]3)CO4)ccnc2N1 (single isomer, unassigned)
11.4

* * *

Tested on: BRAF monomers in A375 cells (BRAF V600E, pERK)
experimental details: A375 AlphaLISA SureFire pERK1/2 Cellular Assay (Monomer)
Assay type: cell-based
measurement conditions: Homo sapiens, A-375, 1 h, read-out: PERK A375 mono (1 hr) plC50
In this section, each of the compounds is paired with its reported IC50.
Report the value in nM with no unit label.

Give the reported IC50 for O=C1CCc2c(Oc3ccc4c(c3)C[C@H](c3nc(-c5ccc(F)cc5)c[nH]3)CO4)ccnc2N1 (single isomer, unassigned) (system: BRAF monomers in A375 cells (BRAF V600E, pERK)).
275

Give the reported IC50 for O=C1CCc2c(Oc3ccc4c(c3)CC(c3ncc(-c5ccc(F)cc5)[nH]3)CO4)ccnc2N1 (racemic) (system: BRAF monomers in A375 cells (BRAF V600E, pERK)).
55

Give the reported IC50 for O=C1CCc2c(Oc3ccc4c(c3)C[C@@H](c3nc(-c5ccc(F)cc5)c[nH]3)CO4)ccnc2N1 (single isomer, unassigned) (system: BRAF monomers in A375 cells (BRAF V600E, pERK)).
30.9
